Test system: OCM.109 cells
PROCEDURE DETAILS: 6-day proliferation of patient-derived ovarian cancer model, nuclei count
Type: cell-based, human
STUDY CONDITIONS: Homo sapiens, 144 h; OCM.109 (HRD), 6 days; read-out: IC50 inhibition of proliferation
pIC50: −log10 of the molar value.
MEASUREMENT TYPE: pIC50

| COMPOUND | READING |
| --- | --- |
| NC(=O)c1cccc2cn(-c3ccc([C@@H]4CCCNC4)cc3)nc12 [Niraparib, niraparib, reference compound] | 5.38 |

====

Tested on: GP2D cells
PROCEDURE DETAILS: 6-day growth assay, Compound 1 in combination with exatecan
Format: cell-based, human
STUDY CONDITIONS: Homo sapiens, GP2d, exatecan 0.03 nM
MEASUREMENT TYPE: IC50

| COMPOUND | READING |
| --- | --- |
| [2H]C([2H])(c1cnn(C)c1)N1C(=O)c2cc(S(=O)(=O)NC3(C)CC3)ccc2N2C1=NC[C@H]2C [Compound 1] | 6 µM |

====

System: RMUG-S cells
PROCEDURE DETAILS: 6-day cell proliferation, nuclei count
Type: cell-based
STUDY CONDITIONS: Homo sapiens, 144 h, read-out: IC50 inhibition of proliferation
Protocol: The FU-97 (Cat #JCRB1074) human gastric cancer cell line and the Kuramochi (Cat #JCRB0098) and RMUG-S(Cat #IFO50320) human ovarian cancer cell lines were obtained from the National Institutes of Biomedical Innovation, Health and Nutrition's Japanese Collection of Research Bioresources (JCRB) (Ibaraki City, Osaka, Japan). […] Compound 1 IC50 values for inhibition of cell proliferation were determined by imaging and counting the number of nuclei after compound treatment. […]
pIC50: −log10 of the molar value.
MEASUREMENT TYPE: pIC50

| SMILES INPUT | READING |
| --- | --- |
| [2H]C([2H])(c1cnn(C)c1)N1C(=O)c2cc(S(=O)(=O)NC3(C)CC3)ccc2N2C1=NC[C@H]2C | 7.12 |

====

Test system: OVCAR3 cells
PROCEDURE DETAILS: 6-day growth assay, Compound 1 in combination with camonsertib
Format: cell-based
STUDY CONDITIONS: Homo sapiens, OVCAR-3, 144 h, camonsertib 32 nM, read-out: Compound 1 IC50, 6-Day Nuclei Count

| COMPOUND | ASSAYED SYSTEM | IC50 |
| --- | --- | --- |
| [2H]C([2H])(c1cnn(C)c1)N1C(=O)c2cc(S(=O)(=O)NC3(C)CC3)ccc2N2C1=NC[C@H]2C [Compound 1] | OVCAR3 cells | 2 µM |

Data origin: patent US20260272936A1
